The entries below are paired with their reported DC50.
Target: BRAF D594G (Homo sapiens, UniProt P15056, D594G)
Construct: Horizon Discovery (HCT-116 BRAF−/− cells); host or cells: HCT-116 BRAF−/− cells, clone 63, lentiviral transduction
Sequence (P15056 whole entry D594G): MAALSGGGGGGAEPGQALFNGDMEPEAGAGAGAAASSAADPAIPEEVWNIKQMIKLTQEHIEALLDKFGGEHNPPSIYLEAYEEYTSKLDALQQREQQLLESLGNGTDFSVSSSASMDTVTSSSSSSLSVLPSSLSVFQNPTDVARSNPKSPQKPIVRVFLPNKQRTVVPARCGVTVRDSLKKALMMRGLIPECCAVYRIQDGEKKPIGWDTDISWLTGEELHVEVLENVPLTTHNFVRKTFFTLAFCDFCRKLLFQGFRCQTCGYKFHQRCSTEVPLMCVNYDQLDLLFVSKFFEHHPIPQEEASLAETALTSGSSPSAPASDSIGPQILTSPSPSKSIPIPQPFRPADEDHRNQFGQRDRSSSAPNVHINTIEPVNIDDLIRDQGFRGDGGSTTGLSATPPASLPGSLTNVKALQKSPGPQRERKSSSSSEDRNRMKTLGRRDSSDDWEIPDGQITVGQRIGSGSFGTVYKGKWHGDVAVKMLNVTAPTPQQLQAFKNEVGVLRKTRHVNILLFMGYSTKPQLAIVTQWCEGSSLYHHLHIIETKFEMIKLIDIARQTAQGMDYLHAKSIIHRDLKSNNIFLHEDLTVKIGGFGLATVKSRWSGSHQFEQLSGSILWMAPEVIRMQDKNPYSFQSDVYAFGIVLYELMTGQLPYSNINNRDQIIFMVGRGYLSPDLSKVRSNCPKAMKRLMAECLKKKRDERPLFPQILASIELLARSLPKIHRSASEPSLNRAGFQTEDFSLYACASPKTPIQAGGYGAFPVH
Assay: BRAF HiBiT degradation assay, C-terminal HiBiT-tagged BRAF D594G overexpressed in HCT-116 BRAF−/− cells (clone 63), Nano-Glo HiBiT Lytic assay
Format: cell-based
Details: BRAF D594G; DC50 at 50%: fitted conc. at Y=50

Record excerpt, results attached:
In [3]: df
Out[3]:
                                   compound                               system_name       result
0  CCCS(=O)(=O)Nc1cccc(-c2nc(C3CCN(C(=O)C4CCN(C(=O)C5CCN(c6ccc(C7CCC(=O)NC7=O)cn6)CC5)CC4)CC3)sc2-c2ccncc2)c1F (racemic)  BRAF D594G (Homo sapiens, UniProt P15056, D594G)      < 10 nM
1  CCCS(=O)(=O)Nc1cccc(-c2cn(-c3ccc(N4CCN(CC5CCN(c6ccc([C@H]7CCC(=O)NC7=O)cn6)CC5)CC4)cc3)nc2-c2ccncc2)c1F  BRAF D594G (Homo sapiens, UniProt P15056, D594G)  10 to 50 nM
2  CCN(C)S(=O)(=O)Nc1cccc(-c2nc(C)sc2-c2ccnc(Nc3ccc(N4CCN(CC5(F)CCN(c6ccc(C7CCC(=O)NC7=O)cc6)CC5)CC4)cn3)n2)c1F (racemic)  BRAF D594G (Homo sapiens, UniProt P15056, D594G)  10 to 50 nM
3  CCCS(=O)(=O)Nc1cccc(-c2nc(C)sc2-c2ccnc(Nc3ccc(C4CCN(C(=O)CC5CCN(c6ccc(NC7CCC(=O)NC7=O)cc6)CC5)CC4)cc3)n2)c1F (racemic)  BRAF D594G (Homo sapiens, UniProt P15056, D594G)     > 500 nM

Q: Looking for the measured DC50 of CCCS(=O)(=O)Nc1cccc(-c2nc(C3CCC4(CC3)CN(C(=O)CCCCCc3ccc5c(c3)C(=O)N(C3CCC(=O)NC3=O)C5)C4)sc2-c2ccnc(N)n2)c1F (racemic) , can you help?
Ans: < 10 nM
